Tested on: 253994-281-T-J1-PDC KRAS-mutant spheroids with HUVEC/MSC, viability;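 further: spheroids exposed to agents for seven days before readout; percent of DMSO vehicle control viability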
Assay: Anticancer human tumor 253994-281-T-J1-PDC patient-derived colorectal carcinoma cell line growth inhibition [KRAS2]
Details: second compound 0.1 µM; first compound 10 µM; hits give low values
Endpoint name: viability, T/C (%)
Write it as a number; the unit % goes unstated.

# annotated cases, reported viability, T/C shown
• CC1OCC2(CCN(c3cnc(Sc4ccnc(N)c4Cl)c(N)n3)CC2)C1N (stereo unspecified) + COc1cc2nc(C)nc(NC(C)c3cc(N)cc(C(F)(F)F)c3)c2cc1OC1CCOC1 = 48
• COc1cc2nccc(Oc3ccc(NC(=O)C4(C(=O)Nc5ccc(F)cc5)CC4)cc3)c2cc1OC + C=CC(=O)N1CCN(c2nc(OCC3CCCN3C)nc3c2CCN(c2cccc4cccc(C)c24)C3)CC1CC#N = 71.1
• COc1cc2nccc(Oc3ccc(NC(=O)C4(C(=O)Nc5ccc(F)cc5)CC4)cc3)c2cc1OC + CC1OCC2(CCN(c3cnc(Sc4ccnc(N)c4Cl)c(N)n3)CC2)C1N = 65.1
• Cn1nccc1Nc1nccc(-c2cc3c(s2)C(C)(C)N(CCN2CCOCC2)C3=O)n1 + COc1cc2nc(C)nc(NC(C)c3cc(N)cc(C(F)(F)F)c3)c2cc1OC1CCOC1 = 19.6
• O=C(c1cc(Cc2n[nH]c(=O)c3ccccc23)ccc1F)N1CCN(C(=O)C2CC2)CC1 + CC1OCC2(CCN(c3cnc(Sc4ccnc(N)c4Cl)c(N)n3)CC2)C1N = 95.5

Note: attention shifts to another entry.
I am curious: what viability, T/C value has been reported for COc1cc2nccc(Oc3ccc(NC(=O)C4(C(=O)Nc5ccc(F)cc5)CC4)cc3)c2cc1OC + C=CC(=O)N1CCN(c2nc(=O)n(-c3c(C)ccnc3C(C)C)c3nc(-c4c(O)cccc4F)c(F)cc23)C(C)C1 ?
71.7
